target: Sushi domains (SD1/2) protein of the GABAB1a (GB1a) subunit, recombinant; experiment: FP competition
Sequence (Q9Z0U4 29-158): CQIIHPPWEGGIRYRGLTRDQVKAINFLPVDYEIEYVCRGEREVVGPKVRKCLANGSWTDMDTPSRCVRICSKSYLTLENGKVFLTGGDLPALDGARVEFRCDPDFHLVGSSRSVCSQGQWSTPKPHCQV
pKi: −log10 of the molar value. Non-standard residues stand in square brackets, D forms with d. NMeD = CN[C@@H](CC(=O)O)C(=O)O
Reported endpoint: pKi

Ac-[dE]DDSDVWWGGADTD-NH2 (SMILES CC(=O)N[C@H](CCC(=O)O)C(=O)N[C@@H](CC(=O)O)C(=O)N[C@@H](CC(=O)O)C(=O)N[C@@H](CO)C(=O)N[C@@H](CC(=O)O)C(=O)N[C@H](C(=O)N[C@@H](Cc1c[nH]c2ccccc12)C(=O)N[C@@H](Cc1c[nH]c2ccccc12)C(=O)NCC(=O)NCC(=O)N[C@@H](C)C(=O)N[C@@H](CC(=O)O)C(=O)N[C@H](C(=O)N[C@@H](CC(=O)O)C(N)=O)[C@@H](C)O)C(C)C) [e…]; 6.32
Ac-PWAIVWGPTVSRE[NMeD]-NH2 (SMILES CC[C@H](C)[C@H](NC(=O)[C@H](C)NC(=O)[C@H](Cc1c[nH]c2ccccc12)NC(=O)[C@@H]1CCCN1C(C)=O)C(=O)N[C@H](C(=O)N[C@@H](Cc1c[nH]c2ccccc12)C(=O)NCC(=O)N1CCC[C@H]1C(=O)N[C@H](C(=O)N[C@H](C(=O)N[C@@H](CO)C(=O)N[C@@H](CCCNC(=N)N)C(=O)N[C@@H](CCC(=O)O)C(=O)N(C)[C@@H](CC(=O)O)C(N)=O)C(C)C)[C@@H](C)O)C(C)C) […(N-Me-D)]; 6.36

a = Ac-E[dT]EFIAWGPTGDED-NH2 [Et…]
b = Ac-PWAIVWGPTVSR-NH2
c = Ac-EDDSIVWWGGADTD-NH2
[Q] Sort entries by pKi from minimum to maximum value. Put the labels in the requested order and write them down.
[A] b, c, a
